assay: label from the status in PepcDB records

chainSequence	protein production
MNLDTPLADGLERAKRFEQGLQQVVLGQERPIRLLTLAVFARGHALLEGGVGVGKTTLLRAVARGIGGDYERIEGTIDLMPNDLVYYTYLDEQGRPGVAPGPLLKHGEQLSIFFFNEINRARPQVHSLLLRVMAERSVSAFNREYRFPYLQVFADRNRVEKEETFELPAAARDRFMLEIAIEPPADPAHIDQILFDPRFYDPDRLVASAPADTLSFRELNGIAEALQGGIHVSARLRSYVQDLWRATRRPEDFGIALHEADSGDMIEAGSSPRGMSYLVRLARVQAWLSGRDRVEPEDVQYVFAPAVGHRIFLKPVYEYRRAELIPELVGKLIRRIAAPLEHHHHHH	failed
VATLYNDLKNKQTSVVEPKKPLPETWKNMHPCMVLNYMRPQCTFIVSGGTGTNQNNTFSMSVCVDNCEFNAEGPSKKAARYKLSALVCNKLFGTDYPQK	failed
MSFWRPRLGLLDASVLSFAVLPTDLDFNRHMTNARYLSLMDLGRLDLILRSGMWRLVLRQSLQPVIGGALVRFRHALRPFQPFRLTTRVLAWDARWLFIEHRVETLDGKPACTAVVRAAFVASTGMLPTADLLTRLGYGGAAPDVPAWIAPWLQADLACQPASPPLENPL	failed
MGLNNARGLSFGLDGALYVTEAGTGGNGACIPSVTGQGGSLCYGTSSTVLKIENGVTSPVLTGLPSIALADGTGAGGARDIQFDTTGKPYILMGYGANPTFRNNLGNIDLGKIIAPDFQTNSWTSIADLANYELVNNPDGGDINSNPLGFFIDGNNLIAVDAGANNLLSVQTNGTNLQTLSVFPQEILTNPVFPPSGTPSTEPGQVPTPTAPPPPQLPIQVVPSSVVRGPDGAYYVSQFTGFPFPEGGAKIYRVGTDGETTIYADGFTQLTDLEFDSAGNLYALQYANQSAWKGNFDGSLIKIAADGTRTTILSGNGLESPNALAIAPNGEIYITNRSDRPGLGQIIRVENSQAVPLEHHHHHH	failed
TSIRQGASNVICAYRRDEENMPGSRREVKNAKEEGVKFMFNLQPLGIEVDAYGKVSGVKVVKTALGEPDDAGRRRPEPVEGSEHVLPADAVIMAFGFQPHQMDWLTPFNVELDQWGRIKAPNNQEFQYQTSNEKIFAGGDAVRGSDLVVTAIDEGRKAAEGILDYLDV	failed
